Hey, just so you know, these numbers are from ChEMBL document CHEMBL5154908.

Experiment: Metabolic stability in rat liver microsomes assessed as half life at 1 uM preincubated for 10 mins followed by NADPH addition and measured after 30 mins by LC/MS/MS analysis
Format: ADME, Microsome
Conditions: time 40 min
quantity: half-life at 1 µM (min)

# smiles notation, half-life at 1 µM [min]
data = [
    ("Cc1ccc(-n2nc(C(C)(C)C)cc2NC(=O)N[C@H]2CC[C@@H](Oc3ccc4nnc(N5CCC(CO)CC5)n4c3)c3ccccc32)cc1", 15),
    ("C[C@H]1CCCCN1c1nnc2ccc(O[C@@H]3CC[C@H](NC(=O)Nc4cc(C(C)(C)C)nn4-c4cccc(OCCN(C)C)c4)c4ccccc43)cn12", 20),
]

----------
Assay: Cmax in Sprague-Dawley rat plasma at 0.3 mg/kg, IT measured after 0.8 hrs by LC/MS/MS analysis
Type: ADME, organism-based
Set-up: time 0.8 hrs, dose 0.3 mg/kg, route it
quantity: Cmax (nM)

[a] C[C@@H]1CCC[C@H](C)N1c1nnc2ccc(O[C@@H]3CC[C@H](NC(=O)Nc4cc(C(C)(C)C)nn4-c4cnn(CCN(C)C)c4)c4ccccc43)cn12
[b] C[C@H]1CCCCN1c1nnc2ccc(O[C@@H]3CC[C@H](NC(=O)Nc4cc(C(C)(C)C)nn4-c4cnn(CCN(C)C)c4)c4ccccc43)cn12
Please let me know which one, a or b , has a lower measured Cmax value. To answer, give the label that identifies your chosen option. b
(b: 20 nM, a: 30 nM)

----------
Assay: Cmax in Sprague-Dawley rat plasma at 0.03 mg/kg, IT measured after 0.8 hrs by LC/MS/MS analysis
Type: ADME, organism-based
Set-up: dose 0.03 mg/kg, time 0.8 hrs, route it
quantity: Cmax (nM)

Known results for compounds:
# smiles notation, unit of measurement, Cmax
measured = [
    ("Cc1ccc(-n2nc(C(C)(C)C)cc2NC(=O)N[C@H]2CC[C@@H](Oc3ccc4nnc(N5CCC(CO)CC5)n4c3)c3ccccc32)cc1", "nM", 50),
    ("C[C@H]1CCCCN1c1nnc2ccc(O[C@@H]3CC[C@H](NC(=O)Nc4cc(C(C)(C)C)nn4-c4cccc(OCCN(C)C)c4)c4ccccc43)cn12", "nM", 10),
]

[I] Cc1ccc(-n2nc(C(C)(C)C)cc2NC(=O)N[C@H]2CC[C@@H](Oc3ccc4nnc(N5CCCCC5)n4c3)c3ccccc32)cc1
[II] Cc1ccc(-n2nc(C(C)(C)C)cc2NC(=O)N[C@H]2CC[C@@H](Oc3ccc4nnc(C(C)C)n4c3)c3ccccc32)cc1
Which has the higher Cmax, I or II ? To answer, give the label that identifies your chosen option. II
(II: 90 nM, I: 60 nM)

----------
Target: Mitogen-activated protein kinase 14 (Homo sapiens, UniProt Q16539)
Sequence (Q16539 whole entry): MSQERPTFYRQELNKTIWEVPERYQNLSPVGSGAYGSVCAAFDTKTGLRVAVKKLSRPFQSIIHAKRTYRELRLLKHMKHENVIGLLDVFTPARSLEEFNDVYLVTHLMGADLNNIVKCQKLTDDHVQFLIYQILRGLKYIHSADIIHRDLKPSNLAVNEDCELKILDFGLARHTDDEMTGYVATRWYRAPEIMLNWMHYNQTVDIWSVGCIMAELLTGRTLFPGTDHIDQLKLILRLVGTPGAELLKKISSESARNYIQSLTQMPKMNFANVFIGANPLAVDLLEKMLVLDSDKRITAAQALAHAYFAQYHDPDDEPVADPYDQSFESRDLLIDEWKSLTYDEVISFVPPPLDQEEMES
Test: Inhibition of human recombinant full length GST-tagged p38alpha expressed in Escherichia coli preincubated for 2 hrs followed by ATP addition and measured after 1 hr by Alpha screen assay
quantity: IC50 (nM)

Known results for molecules:
# smiles notation, reported value
records = [
    ("C[C@@H]1CCC[C@H](C)N1c1nnc2ccc(O[C@@H]3CC[C@H](NC(=O)Nc4cc(C(C)(C)C)nn4-c4cnn(CCN(C)C)c4)c4ccccc43)cn12", 0.05),
    ("C[C@H]1CCCCN1c1nnc2ccc(O[C@@H]3CC[C@H](NC(=O)Nc4cc(C(C)(C)C)nn4-c4cncc(OCCN(C)C)c4)c4ccccc43)cn12", 0.03),
    ("Cc1ccc(-n2nc(C(C)(C)C)cc2NC(=O)N[C@H]2CC[C@@H](Oc3ccc4nnc(N5CCC(O)CC5)n4c3)c3ccccc32)cc1", 0.5),
]

[P] Cc1ccc(-n2nc(C(C)(C)C)cc2NC(=O)N[C@H]2CC[C@H](Oc3ccc4nnc(C(C)C)n4c3)c3ccccc32)cc1
[Q] CCN(C)CCn1cc(-n2nc(C(C)(C)C)cc2NC(=O)N[C@H]2CC[C@@H](Oc3ccc4nnc(N5CCCC[C@@H]5C)n4c3)c3ccccc32)cn1
[R] Cc1ccc(-n2nc(C(C)(C)C)cc2NC(=O)N[C@H]2CC[C@@H](Oc3ccc4nnc(N5CCCC5)n4c3)c3ccccc32)cc1
[S] CC(C)c1nnc2ccc(O[C@@H]3CC[C@H](NC(=O)Nc4cc(C(C)(C)C)nn4-c4cccc(OCCN(C)C)c4)c4ccccc43)cn12
Ordering criterion: IC50; begin with the maximum. Respond with the label ranking, as requested. S, R, Q, P
